System: androgen receptor (Homo sapiens, UniProt P10275)
Sequence (P10275 1-920 Q868H): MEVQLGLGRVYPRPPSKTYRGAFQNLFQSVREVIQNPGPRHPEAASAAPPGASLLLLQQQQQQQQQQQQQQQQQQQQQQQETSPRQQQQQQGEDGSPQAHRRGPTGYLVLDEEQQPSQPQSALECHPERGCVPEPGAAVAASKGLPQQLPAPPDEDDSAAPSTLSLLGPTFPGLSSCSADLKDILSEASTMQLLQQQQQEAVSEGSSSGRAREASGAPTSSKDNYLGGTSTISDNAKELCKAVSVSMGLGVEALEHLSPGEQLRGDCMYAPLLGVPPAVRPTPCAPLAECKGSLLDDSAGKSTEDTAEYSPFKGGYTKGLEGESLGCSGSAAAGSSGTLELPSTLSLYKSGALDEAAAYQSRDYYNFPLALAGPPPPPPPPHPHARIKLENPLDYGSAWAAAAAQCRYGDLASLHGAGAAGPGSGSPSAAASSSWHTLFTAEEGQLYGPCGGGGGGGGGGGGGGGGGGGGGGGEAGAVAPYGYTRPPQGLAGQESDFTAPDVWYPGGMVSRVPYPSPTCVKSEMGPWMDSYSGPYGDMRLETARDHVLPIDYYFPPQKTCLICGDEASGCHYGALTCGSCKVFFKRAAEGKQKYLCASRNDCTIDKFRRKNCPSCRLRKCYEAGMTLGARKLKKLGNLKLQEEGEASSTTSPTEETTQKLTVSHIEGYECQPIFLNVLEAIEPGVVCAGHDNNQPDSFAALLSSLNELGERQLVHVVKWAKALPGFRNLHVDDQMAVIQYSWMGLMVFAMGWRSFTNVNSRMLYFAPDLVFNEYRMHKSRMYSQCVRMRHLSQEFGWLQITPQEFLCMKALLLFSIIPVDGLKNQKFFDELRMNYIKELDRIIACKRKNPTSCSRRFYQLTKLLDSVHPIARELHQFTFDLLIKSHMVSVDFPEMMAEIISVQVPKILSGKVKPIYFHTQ
Test name: AR Antagonist Cell Assay (MMTV-luciferase reporter, DHT-stimulated)
Condition parameters: MDA-MB453-MMTV clone 54-19 cells, inhibition of induction by 100 pM DHT, 17 hr
Measured IC50 of individual entries

In the examples that follow, each entry is paired with its recorded IC50.
O=c1cc(C(F)(F)F)c2cc(Cc3ccc(S(=O)(=O)N4CCCCC4c4cccnc4)cc3)ccc2o1 (stereo not shown)
8.9 µM
COc1cc2c(cc1OC)CN(S(=O)(=O)c1ccc(Cc3ccc4[nH]c(=O)cc(C(F)(F)F)c4c3)cc1)CC2
> 10 µM
O=C(CN1CCN(S(=O)(=O)c2ccc(Cc3ccc4oc(=O)cc(C(F)(F)F)c4c3)cc2)CC1)N1CCCC1
> 10 µM
CC1CCN(S(=O)(=O)c2ccc(Cc3ccc4oc(=O)cc(C(F)(F)F)c4c3)cc2)CC1
> 10 µM
O=c1cc(C(F)(F)F)c2cc(Cc3ccc(S(=O)(=O)N4CCCCC4)cc3)ccc2[nH]1
> 10 µM

q: Endpoint output: IC50 of O=c1cc(C(F)(F)F)c2cc(Cc3ccc(S(=O)(=O)N4CCC5(CC4)OCCO5)cc3)ccc2[nH]1 . Value?
a: > 10 µM

q: Endpoint output: IC50 of CC(C)N(CCN1CCN(S(=O)(=O)c2ccc(Cc3ccc4oc(=O)cc(C(F)(F)F)c4c3)cc2)CC1)C(C)C . Value?
a: 5.2 µM
